Catalogue of melting point values

Report melting point, nothing else, for this compound: O=C(O)COc1ccc(SCc2ccccc2OCc2ccc(C(F)(F)F)cc2)c2c1CCC2 150 to 152 °C

Quote melting point reported for C=CCN(CC)C(=O)n1cnc(S(=O)(=O)CC)n1 please. 39 to 41.5 °C

Complete the entry with melting point for COC(=O)COc1ccc(-c2ccc3c(c2)c(C)c(-c2ccccc2)n3Cc2ccccc2)cc1 167 to 170 °C

Check the records and state melting point for Cc1[nH]c(=S)n(Nc2cccc(Cl)c2)c1-c1ccc(Cl)cc1 225 °C

Identify measured melting point corresponding to CCC1c2cccn2-c2cc(O)c(F)cc2N1S(=O)(=O)c1ccc(O)c(C)c1 (stereo not given) 194 to 196 °C

Kindly indicate its recorded melting point. Item: O=C(Oc1cc(F)ccc1[N+](=O)[O-])c1cc2cc(CCl)ccc2oc1=O 205 to 208 °C

Give the reported value of melting point for this record: COC(=O)COc1cccc2c1CCC(CC(=O)CBr)C2 (stereo not given) 77 to 78 °C

Answer with reported melting point of COc1ccccc1-n1cnc2c(C(N)=O)nc(-c3ccccc3O)nc21 278 to 280 °C

Name the recorded melting point of the item CC(=O)Oc1ccc(OC(C)=O)c(-c2ccc(C)cc2)c1 in your answer. 94 to 96 °C

Indicate its recorded melting point; the compound in question is Cc1ccc(OCCOc2cccc(C)c2)cc1 94 °C

More entries:
Look up and state reported melting point for Cc1ccccc1-c1c(C#N)nn(-c2c(Cl)cc(C(F)(F)F)cc2Cl)c1N 199 to 202 °C

Dear colleague, please send me the reported melting point for CCc1coc2c(Cc3ccc(C(C)C)cc3)c(C)cc(C)c12 when you can. 62 to 64 °C

Look up and report measured melting point for this entry: CCN(C(C)=O)c1cccc(-c2ccn3ncc(C#N)c3n2)c1 194 to 196 °C

Provide one value: measured melting point of CC(C)n1nc(-c2sc(NC(=O)c3ccc(CCl)cc3)nc2-c2ccccc2)ccc1=O > 250 °C

Name the recorded melting point of the item CCOC(=O)c1ccc(Nc2c(NCc3ccccc3)cc(C(=O)OCC)cc2S(N)(=O)=O)cc1 in your answer. 161 °C

Quote melting point reported for CS(=O)(=O)Nc1cccc(C(=O)NCCN2CCC(Oc3ccc(Cl)c(Cl)c3)CC2)c1 please. 150 to 151 °C
